Listing of recorded Ki by entry.
Biological target: UniProt O44029
Sequence (O44029 entry or part of it): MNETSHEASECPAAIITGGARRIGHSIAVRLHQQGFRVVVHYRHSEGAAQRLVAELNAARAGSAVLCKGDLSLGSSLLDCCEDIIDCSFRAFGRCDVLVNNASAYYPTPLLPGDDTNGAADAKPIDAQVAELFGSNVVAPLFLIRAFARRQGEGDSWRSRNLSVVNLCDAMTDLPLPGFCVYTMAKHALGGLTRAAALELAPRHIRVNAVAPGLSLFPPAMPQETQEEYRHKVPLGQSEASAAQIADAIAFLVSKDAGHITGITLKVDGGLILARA
Assay: PTR1 enzyme inhibition (dihydrofolic acid substrate, NADPH cofactor), TcPTR1
Format: biochemical
Conditions: NI means no inhibition at 190 μM; read-out: PTR1 Tc Ki
Give the quantity in µM, number only.

Some solved cases for reference:
MOLECULE	TESTED_SYSTEM	PARAMETER	REPORTED_MEASUREMENT
COC(=O)C1CCN(C(=O)c2ccc(NCc3cnc4nc(N)nc(C)c4n3)cc2)CC1	UniProt O44029	Ki	7
COC(=O)C1CCN(C(=O)c2ccc(NCc3nc4cc(C(F)(F)F)ccc4nc3-c3ccccc3)cc2)C(C(=O)OC)C1 (stereo not shown)	UniProt O44029	Ki	40
CCOC(=O)C1CCCCN1C(=O)c1ccc(NCc2cnc3ccc(C(F)(F)F)cc3n2)cc1 (stereo not shown)	UniProt O44029	Ki	106

# context switch: different molecule, same Ki
Query block: Name the recorded Ki of the molecule listed here: `Cc1cc(C(F)(F)F)cc2nc(-c3ccccc3)c(CNc3ccc(C(=O)N4CCC(C(=O)O)CC4)cc3)nc12`
Result block: 20
